tested on: MCF-7 cells; assay: Sulforhodamine B assay, proliferation of MCF-7 cells; format: cell-based, human; settings: MCF-7 breast cancer cells, one cell cycle (48 h), SRB; read-out: IC50 (μM), MCF-7
Readout Name: IC50 (µM)
Reply with just the number (in µM).

Value lookup for IC50; key = N.N.[Cl][Pt][Cl] [cisplatin, cis-diammine-dichloroplatinum (II), reference compound]
14.9

---

test system: HeLa cells; assay: Sulforhodamine B assay, proliferation of HeLa cells; format: cell-based, human; settings: HeLa cervical cancer cells, 24 h, SRB
Readout Name: IC50 (µM)
Kindly answer with a numeric value in µM, unit omitted.

Consider the molecule shown here: N.N.[Cl][Pt][Cl] [cisplatin, cis-diammine-dichloroplatinum (II), reference compound] What is its recorded IC50?
8.5
